test system: Signal peptidase I (Escherichia coli K-12)
experimental details: Inhibition of Escherichia coli type 1 signal peptidase lepB assessed as residual activity at 0.0024 uM preincubated for 10 mins followed by Dabcyl-VGGTATAYGAFSRPGLE-(EDANS)-OH substrate addition measured after 2 hrs by FRET based assay (reference value: 100%)
Square brackets hold non-standard residues; d marks the D form. Peptide text beside a SMILES is read from it. * marks the point of attachment. Benzoyl(4-(4-hexylphenyl)) = CCCCCCc1ccc(-c2ccc(C(=O)*)cc2)cc1; X1 = C[C@H](N*)B1OC2C[C@@H]3C[C@@H](C3(C)C)[C@]2(C)O1; Orn = NCCC[C@H](N)C(=O)O
experimental readout: Activity (%)

[[record]]
compound = "CCCCCCc1ccc(-c2ccc(C(=O)N[C@@H](CCCN)C(=O)N[C@H](C(=O)N[C@@H](C)C(=O)N[C@@H](CC(N)=O)C(=O)N[C@@H](C)B3OC4C[C@@H]5C[C@@H](C5(C)C)[C@]4(C)O3)[C@@H](C)O)cc2)cc1 (some centres not stated) ({Benzoyl(4-(4-hexylphenyl))}-[Orn]TAN-X1)"
experimental_readout = "Activity"
numeric_value = 91.9

[[record]]
compound = "CCCCCCc1ccc(-c2ccc(C(=O)N[C@@H](CCCN)C(=O)N[C@H](C(=O)N[C@@H](C)C(=O)N[C@H]3Cc4cn(nn4)CCCN4C[C@@H]5OB(O[C@@H]5C4)[C@H](C)NC3=O)[C@@H](C)O)cc2)cc1"
experimental_readout = "Activity"
numeric_value = 86.2


====

# maps each entry to its MIC
Test system: Escherichia coli
experimental details: Antibacterial activity against Escherichia coli ATCC 25922 after 16 to 20 hrs by broth microdilution method
Type: functional
Square brackets hold non-standard residues; d marks the D form. Peptide text beside a SMILES is read from it. * marks the point of attachment. Benzoyl(4-(4-hexylphenyl)) = CCCCCCc1ccc(-c2ccc(C(=O)*)cc2)cc1; X1 = C[C@H](N*)B1OC2C[C@@H]3C[C@@H](C3(C)C)[C@]2(C)O1; boroAla = C[C@H](N*)B(O)O; Orn = NCCC[C@H](N)C(=O)O
experimental readout: MIC (µg/mL)

[[record]]
compound = "CCCCCCc1ccc(-c2ccc(C(=O)N[C@@H](CCCNC(=N)N)C(=O)N[C@H](C(=O)N[C@@H](C)C(=O)N[C@H]3Cc4cn(nn4)CCCN4C[C@@H]5OB(O[C@@H]5C4)[C@H](C)NC3=O)[C@@H](C)O)cc2)cc1"
value_unit = "µg/mL"
censoring_sign = "="
numeric_value = 16

[[record]]
compound = "CCCCCCc1ccc(-c2ccc(C(=O)N[C@@H](CCCN)C(=O)N[C@H](C(=O)N[C@@H](C)C(=O)N[C@@H](CC(N)=O)C(=O)N[C@@H](C)B(O)O)[C@@H](C)O)cc2)cc1 ({Benzoyl(4-(4-hexylphenyl))}-[Orn]TAN-boroAla)"
value_unit = "µg/mL"
censoring_sign = "="
numeric_value = 8

[[record]]
compound = "CCCCCCc1ccc(-n2cc(C(=O)N[C@@H](CCCN)C(=O)N[C@H](C(=O)N[C@@H](C)C(=O)N[C@H]3Cc4cn(nn4)CCO[C@@H]4C[C@@H]5OB(O[C@@H]5C4)[C@H](C)NC3=O)[C@@H](C)O)ccc2=O)cc1"
value_unit = "µg/mL"
censoring_sign = ">"
numeric_value = 64

[[record]]
compound = "CCCCCCc1ccc(-c2ccc(C(=O)N[C@@H](CCCN)C(=O)N[C@H](C(=O)N[C@@H](C)C(=O)N[C@H]3Cc4cn(nn4)CCCN4C[C@@H]5OB(O[C@@H]5C4)[C@H](C)NC3=O)[C@@H](C)O)cc2)cc1"
value_unit = "µg/mL"
censoring_sign = "="
numeric_value = 32

[[record]]
compound = "CCCCCCc1ccc(-c2ccc(C(=O)N[C@@H](Cc3cnc[nH]3)C(=O)N[C@H](C(=O)N[C@@H](C)C(=O)N[C@H]3Cc4cn(nn4)CCCN4C[C@@H]5OB(O[C@@H]5C4)[C@H](C)NC3=O)[C@@H](C)O)cc2)cc1"
value_unit = "µg/mL"
censoring_sign = ">"
numeric_value = 64

[[record]]
compound = "CCCCCCc1ccc(-c2ccc(C(=O)N[C@@H](CCCN)C(=O)N[C@H](C(=O)N[C@@H](C)C(=O)N[C@H]3Cc4cn(nn4)CCN4C[C@@H]5OB(O[C@@H]5C4)[C@H](C)NC3=O)[C@@H](C)O)cc2)cc1"
value_unit = "µg/mL"
censoring_sign = "="
numeric_value = 64

[[record]]
compound = "C[C@@H]1NC(=O)[C@@H](NC(=O)[C@H](C)NC(=O)[C@@H](NC(=O)[C@H](CCCN)NC(=O)c2ccc(-c3ccccc3)cc2)[C@@H](C)O)Cc2cn(nn2)CCO[C@@H]2C[C@@H]3OB1O[C@@H]3C2"
value_unit = "µg/mL"
censoring_sign = ">"
numeric_value = 64

[[record]]
compound = "CCCCCCc1ccc(-c2ccc(C(=O)N[C@@H](CCCN)C(=O)N[C@H](C(=O)N[C@@H](C)C(=O)N[C@@H](CC(N)=O)C(=O)N[C@@H](C)B3OC4C[C@@H]5C[C@@H](C5(C)C)[C@]4(C)O3)[C@@H](C)O)cc2)cc1 (some centres undefined) ({Benzoyl(4-(4-hexylphenyl))}-[Orn]TAN-X1)"
value_unit = "µg/mL"
censoring_sign = "="
numeric_value = 8


====

# maps each entry to its Activity
test system: Signal peptidase I (Escherichia coli K-12)
experimental details: Inhibition of Escherichia coli type 1 signal peptidase lepB assessed as residual activity at 0.0006 uM preincubated for 10 mins followed by Dabcyl-VGGTATAYGAFSRPGLE-(EDANS)-OH substrate addition measured after 2 hrs by FRET based assay (reference value: 100%)
experimental readout: Activity

[[record]]
substance_smiles = "CCCCCCc1ccc(-c2ccc(C(=O)N[C@@H](CCCN)C(=O)N(C)[C@H](C(=O)N[C@@H](C)C(=O)N[C@H]3Cc4cn(nn4)CCCN4C[C@@H]5OB(O[C@@H]5C4)[C@H](C)NC3=O)[C@@H](C)O)cc2)cc1"
result = "95.8%"

[[record]]
substance_smiles = "CCCCCCc1ccc(-c2ccc(C(=O)N[C@@H](CCCN)C(=O)N[C@H](C(=O)N[C@@H](C)C(=O)N[C@H]3Cc4cn(nn4)CCN4C[C@@H]5OB(O[C@@H]5C4)[C@H](C)NC3=O)[C@@H](C)O)cc2)cc1"
result = "97.3%"


====

test system: Signal peptidase I (Escherichia coli K-12) (UniProt P00803)
Sequence (P00803 whole entry): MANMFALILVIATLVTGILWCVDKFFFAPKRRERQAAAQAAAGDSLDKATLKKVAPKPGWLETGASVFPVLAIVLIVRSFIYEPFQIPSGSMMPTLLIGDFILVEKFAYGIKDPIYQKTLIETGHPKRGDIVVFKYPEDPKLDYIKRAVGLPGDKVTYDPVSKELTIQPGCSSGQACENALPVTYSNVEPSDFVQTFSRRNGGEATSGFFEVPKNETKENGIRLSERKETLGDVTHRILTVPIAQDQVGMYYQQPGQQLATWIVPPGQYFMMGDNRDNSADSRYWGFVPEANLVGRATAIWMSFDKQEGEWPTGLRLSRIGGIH
experimental details: Inhibition of Escherichia coli type 1 signal peptidase lepB assessed as residual activity at 0.0098 uM preincubated for 10 mins followed by Dabcyl-VGGTATAYGAFSRPGLE-(EDANS)-OH substrate addition measured after 2 hrs by FRET based assay (reference value: 100%)
experimental readout: Activity (%)

[[record]]
substance_smiles = "CCCCCCc1ccc(-c2c[nH]c3ccc(C(=O)N[C@@H](CCCN)C(=O)N[C@H](C(=O)N[C@@H](C)C(=O)N[C@H]4Cc5cn(nn5)CCO[C@@H]5C[C@@H]6OB(O[C@@H]6C5)[C@H](C)NC4=O)[C@@H](C)O)cc23)cc1"
test_system = "Signal peptidase I (Escherichia coli K-12) (UniProt P00803)"
experimental_readout = "Activity"
numeric_value = 98.5

[[record]]
substance_smiles = "CCCCCCc1ccc(-c2ccc(C(=O)N[C@@H](CCCN)C(=O)N[C@H](C(=O)N[C@@H](C)C(=O)N[C@H]3Cc4cn(nn4)CCO[C@@H]4C[C@@H]5OB(O[C@@H]5C4)[C@H](C)NC3=O)[C@@H](C)O)cc2)cc1"
test_system = "Signal peptidase I (Escherichia coli K-12) (UniProt P00803)"
experimental_readout = "Activity"
numeric_value = 94.3

[[record]]
substance_smiles = "C[C@@H]1NC(=O)[C@@H](NC(=O)[C@H](C)NC(=O)[C@@H](NC(=O)[C@H](CCCN)NC(=O)c2ccc(-c3ccccc3)cc2)[C@@H](C)O)Cc2cn(nn2)CCO[C@@H]2C[C@@H]3OB1O[C@@H]3C2"
test_system = "Signal peptidase I (Escherichia coli K-12) (UniProt P00803)"
experimental_readout = "Activity"
numeric_value = 88.3


====

test system: Signal peptidase I (Escherichia coli K-12)
experimental details: Inhibition of Escherichia coli type 1 signal peptidase lepB assessed as residual activity at 2.5 uM preincubated for 10 mins followed by Dabcyl-VGGTATAYGAFSRPGLE-(EDANS)-OH substrate addition measured after 2 hrs by FRET based assay (reference value: 100%)
experimental readout: Activity (%)

[[record]]
substance_smiles = "C[C@@H]1NC(=O)[C@@H](NC(=O)[C@H](C)NC(=O)[C@@H](NC(=O)[C@H](CCCN)NC(=O)c2ccc(-c3ccccc3)cc2)[C@@H](C)O)Cc2cn(nn2)CCO[C@@H]2C[C@@H]3OB1O[C@@H]3C2"
experimental_readout = "Activity"
numeric_value = 9.9

[[record]]
substance_smiles = "CCCCCCc1ccc(-c2ccc(C(=O)N[C@@H](CCCNC(=N)N)C(=O)N[C@H](C(=O)N[C@@H](C)C(=O)N[C@H]3Cc4cn(nn4)CCCN4C[C@@H]5OB(O[C@@H]5C4)[C@H](C)NC3=O)[C@@H](C)O)cc2)cc1"
experimental_readout = "Activity"
numeric_value = 32.8

[[record]]
substance_smiles = "CCCCCCC#Cc1cncc(C(=O)N[C@@H](CCCN)C(=O)N[C@H](C(=O)N[C@@H](C)C(=O)N[C@H]2Cc3cn(nn3)CCO[C@@H]3C[C@@H]4OB(O[C@@H]4C3)[C@H](C)NC2=O)[C@@H](C)O)c1"
experimental_readout = "Activity"
numeric_value = 8.2

[[record]]
substance_smiles = "CCCCCCc1ccc(-c2ccc(C(=O)N[C@@H](CCCN)C(=O)N[C@H](C(=O)N[C@@H](C)C(=O)N[C@H]3Cc4cn(nn4)CCCN4C[C@@H]5OB(O[C@@H]5C4)[C@H](C)NC3=O)[C@@H](C)O)cc2)cc1"
experimental_readout = "Activity"
numeric_value = 28.1

